Molecular target: UniProtKB Q12852
Sequence (Q12852 1-859): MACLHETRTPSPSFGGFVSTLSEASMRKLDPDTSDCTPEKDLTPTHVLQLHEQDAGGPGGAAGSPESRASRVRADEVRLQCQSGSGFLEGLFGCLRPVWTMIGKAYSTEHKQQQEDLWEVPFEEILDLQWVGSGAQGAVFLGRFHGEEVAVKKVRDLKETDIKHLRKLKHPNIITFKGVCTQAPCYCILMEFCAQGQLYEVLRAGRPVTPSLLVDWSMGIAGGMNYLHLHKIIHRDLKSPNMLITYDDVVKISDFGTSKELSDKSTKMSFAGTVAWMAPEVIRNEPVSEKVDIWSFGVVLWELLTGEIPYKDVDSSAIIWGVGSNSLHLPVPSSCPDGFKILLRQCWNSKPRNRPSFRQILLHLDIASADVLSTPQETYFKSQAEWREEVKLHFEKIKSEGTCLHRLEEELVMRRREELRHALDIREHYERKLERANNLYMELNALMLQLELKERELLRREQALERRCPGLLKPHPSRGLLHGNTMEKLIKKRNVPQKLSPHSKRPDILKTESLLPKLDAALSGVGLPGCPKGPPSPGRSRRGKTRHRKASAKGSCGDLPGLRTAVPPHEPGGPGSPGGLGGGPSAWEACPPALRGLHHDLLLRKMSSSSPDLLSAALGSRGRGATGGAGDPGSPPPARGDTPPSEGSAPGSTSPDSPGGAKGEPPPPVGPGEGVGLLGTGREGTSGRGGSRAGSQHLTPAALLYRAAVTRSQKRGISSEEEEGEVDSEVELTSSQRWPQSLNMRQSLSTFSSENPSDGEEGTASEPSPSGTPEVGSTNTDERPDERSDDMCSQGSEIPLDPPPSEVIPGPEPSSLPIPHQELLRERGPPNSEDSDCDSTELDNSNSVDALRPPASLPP
Test: Phospho-cJun Cellular Assay
Conditions: HEK293 cells stably transfected with Dox-inducible human DLK; p-cJun (Ser63); 5 h compound incubation
Measured pIC50 accompanies every entry in the list below.
Quick note: pIC50 means taking -log10 of the concentration in moles per liter.

Sample records with pIC50:
compound="CC1COCCN1C1C[C@@H]2[C@H](C1)[C@H]2n1cc(-c2cnc(N)c(OC(F)(F)F)c2)nc1C1CC1 (stereo partly shown) [Example 148]" tested_target="UniProtKB Q12852" property_measured=pIC50 reading=6.15
compound="Nc1ncc(-c2cn([C@H]3[C@@H]4CN(C5CCOCC5)C[C@@H]43)c(CC3CC3)n2)cc1OC(F)(F)F [Example 97]" tested_target="UniProtKB Q12852" property_measured=pIC50 reading=5.72
compound="COCCN1C[C@@H]2[C@H](C1)[C@H]2n1cc(-c2cnc(N)c(OC(F)(F)F)c2)nc1C1CC1 [Example 68]" tested_target="UniProtKB Q12852" property_measured=pIC50 reading=6.13
compound="Nc1ncc(-c2cn([C@H]3[C@@H]4CC(N5CCN(CCF)CC5)C[C@@H]43)c(CC3CC3)n2)cc1C(F)(F)F (single isomer, unassigned) [Example 162a]" tested_target="UniProtKB Q12852" property_measured=pIC50 reading=5.98
compound="CC(C)c1nc(-c2cnc(N)c(OC(F)(F)F)c2)cn1[C@H]1C2CC(N3C[C@@H]4C[C@H]3CO4)C[C@@H]21 (stereo in doubt) [Example 134]" tested_target="UniProtKB Q12852" property_measured=pIC50 reading=5.98
compound="Nc1ncc(-c2cn([C@H]3[C@@H]4CN(C5CCOCC5)C[C@@H]43)c(CC3CC3)n2)cc1C(F)(F)F [Example 76]" tested_target="UniProtKB Q12852" property_measured=pIC50 reading=6.12
compound="CN1CCN(C2C[C@@H]3[C@H](C2)[C@H]3n2cc(-c3cnc(N)c(C(F)(F)F)c3)nc2CC2CC2)CC1 (single isomer, unassigned) [Example 161a]" tested_target="UniProtKB Q12852" property_measured=pIC50 reading=6.34
compound="Nc1ncc(-c2cn([C@H]3[C@@H]4CC(N5CCOCC5)C[C@@H]43)c(CC3CC3)n2)cc1C(F)(F)F (single isomer, unassigned) [Example 138b]" tested_target="UniProtKB Q12852" property_measured=pIC50 reading=5.98
compound="CN1CCN(C2C[C@@H]3[C@H](C2)[C@H]3n2cc(-c3cnc(N)c(OC(F)(F)F)c3)nc2CC2CC2)CC1 (single isomer, unassigned) [Example 151b]" tested_target="UniProtKB Q12852" property_measured=pIC50 reading=6.08
compound="CC(C)c1nc(-c2cnc(N)c(OC(F)(F)F)c2)cn1[C@H]1[C@@H]2CC(N3CCOCC3)C[C@@H]21 (single isomer, unassigned) [Example 19a]" tested_target="UniProtKB Q12852" property_measured=pIC50 reading=6.18

[ask] What measured pIC50 goes with Nc1ncc(-c2cn(C3CC4(CC(N5CCOCC5)C4)C3)c(C3CC3)n2)cc1C(F)(F)F (stereo not shown) [Example 40] ?
[reply] 6.23

[ask] Any idea what pIC50 was measured for CN1CCN(C2C[C@@H]3[C@H](C2)[C@H]3n2cc(-c3cnc(N)c(OC(F)F)c3)nc2C2CC2)CC1 (stereo partly shown) [Example 150] ?
[reply] 5.96

[ask] Name the reported pIC50 value associated with the compound CC(=O)N1C[C@@H]2[C@H](C1)[C@H]2n1cc(-c2cnc(N)c(C(F)(F)F)c2)nc1C1CC1 [Example 72]
[reply] 5.57
